system: Escherichia coli TOP10; test: shrunken log2 fold change of peptide-encoding DNA abundance (4.5 h post-induction vs induction); higher = less antimicrobial activity (less host growth inhibition); conditions: time post-induction: 4.5 h; library: site-saturation at positions 5, 18, 19, 20
Please respond with reported shrunken log2 fold change for every item in the list.
Lab note: jot down the number only; don't add units.

For RRIRQRPPRLPRPRPRPLYSPRP , what is its reported shrunken log2 fold change?
-0.649

Then this sequence: RRIRGRPPRLPRPRPRPYTFPRP
0.151

Next sequence up: RRIRGRPPRLPRPRPRPVEFPRP
0.596

Same read-out for RRIRWRPPRLPRPRPRPWPDPRP ?
0.0849

Also check RRIRNRPPRLPRPRPRPRLRPRP
0.0785

Continue with RRIRMRPPRLPRPRPRPTIIPRP
-0.374

Now consider RRIRLRPPRLPRPRPRPYGAPRP and answer again.
-0.0327

Do the same for RRIRIRPPRLPRPRPRPKDKPRP please
-0.747

Do the same for RRIRMRPPRLPRPRPRPEQRPRP please
2.55

Another sequence to check: RRIRVRPPRLPRPRPRPHAWPRP
0.0267

Cool, now RRIRERPPRLPRPRPRPVCVPRP
-0.0194

Now consider RRIRRRPPRLPRPRPRPSPWPRP .
0.335

Likewise for RRIRYRPPRLPRPRPRPCQVPRP ?
-0.116

Try RRIRLRPPRLPRPRPRPDTLPRP next.
-0.15

###

test system: Escherichia coli TOP10; assay: shrunken log2 fold change of peptide-encoding DNA abundance (4.5 h post-induction vs induction); higher = less antimicrobial activity (less host growth inhibition); conditions: time post-induction: 4.5 h; library: site-saturation at positions 5, 18, 19, 20
Could you please report measured shrunken log2 fold change for the items listed next?
Just the number, please, no unit attached.

# get_value(readout='shrunken log2 fold change', item= RRIRQRPPRLPRPRPRPLYMPRP )
-0.198

Queued: RRIRARPPRLPRPRPRPSPFPRP
0.0195

Cool, now RRIRERPPRLPRPRPRPMRNPRP
-0.062

Do the same for RRIRSRPPRLPRPRPRPWPAPRP please
0.199

Record: RRIRMRPPRLPRPRPRPKEHPRP
0.617

// repeat for RRIRRRPPRLPRPRPRPDRNPRP and report
0.00393

Then this sequence: RRIRERPPRLPRPRPRPEQRPRP
0.32

Now consider RRIRPRPPRLPRPRPRPYYFPRP .
-0.427

// next record RRIRIRPPRLPRPRPRPTIHPRP
-0.592

Can you check RRIRYRPPRLPRPRPRPWGYPRP next?
-0.0919

What do you get for RRIRCRPPRLPRPRPRPYFPPRP ?
-0.513

One more sequence: RRIRDRPPRLPRPRPRPLTLPRP
-0.0246

What do you have for RRIRFRPPRLPRPRPRPQCNPRP ?
-0.531

Cool, now RRIRVRPPRLPRPRPRPETRPRP
0.577

Then what about the sequence RRIRRRPPRLPRPRPRPCRHPRP ?
-0.105

# repeat for RRIRWRPPRLPRPRPRPINIPRP
-1.2

Entry to check: RRIRRRPPRLPRPRPRPNHKPRP
-0.226

Now give it for RRIRERPPRLPRPRPRPGKHPRP too.
-0.324

How about RRIRDRPPRLPRPRPRPRPRPRP ?
0.983

###

tested on: Escherichia coli TOP10; assay: shrunken log2 fold change of peptide-encoding DNA abundance (4.5 h post-induction vs induction); higher = less antimicrobial activity (less host growth inhibition); conditions: time post-induction: 4.5 h; library: site-saturation at positions 5, 18, 19, 20
For each of the sequences below, state its shrunken log2 fold change.
# answer = number (no unit)

Item RRIRVRPPRLPRPRPRPAGNPRP has what recorded shrunken log2 fold change?
0.141

Same for RRIRMRPPRLPRPRPRPCTDPRP
-0.132

Param item: RRIRHRPPRLPRPRPRPAWWPRP
0.157

Follow-up item: RRIRNRPPRLPRPRPRPPHIPRP
-0.311

Also RRIRWRPPRLPRPRPRPFESPRP , if possible.
-0.0622

// query: RRIRGRPPRLPRPRPRPQLNPRP
0.368

// repeat for RRIRQRPPRLPRPRPRPNKGPRP and report
-0.0896

Entry to check: RRIRHRPPRLPRPRPRPSYQPRP
-1.14

Again, but for RRIRLRPPRLPRPRPRPPAFPRP
0.144

Same question for RRIRCRPPRLPRPRPRPIIFPRP please.
-0.726

Would you kindly repeat that for RRIRNRPPRLPRPRPRPINAPRP ?
-0.00965

Now the sequence RRIRPRPPRLPRPRPRPLYAPRP
0.0267

Same thing, different sequence: RRIRRRPPRLPRPRPRPGISPRP
0.0929

Do the same for RRIRTRPPRLPRPRPRPTCNPRP please
-0.533

Next up: RRIRFRPPRLPRPRPRPYDQPRP
-0.0152

Repeat for the following sequence: RRIRARPPRLPRPRPRPKFWPRP
0.696

###

test system: Escherichia coli TOP10; experiment: shrunken log2 fold change of peptide-encoding DNA abundance (4.5 h post-induction vs induction); higher = less antimicrobial activity (less host growth inhibition); conditions: time post-induction: 4.5 h; library: site-saturation at positions 5, 18, 19, 20
Binary classification by shrunken log2 fold change, with 0.1 as an inclusive lower bound for 1; all other cases are 0.

Has RRIRRRPPRLPRPRPRPFGAPRP a recorded shrunken log2 fold change greater than or equal to 0.1?
1

Then what about the sequence RRIRQRPPRLPRPRPRPVPQPRP ?
0

Same question for RRIRTRPPRLPRPRPRPHMWPRP please.
0

Then what about the sequence RRIRDRPPRLPRPRPRPPVKPRP ?
1

Same for RRIRKRPPRLPRPRPRPKLHPRP
1

Same read-out for RRIRERPPRLPRPRPRPRMVPRP ?
0

// repeat for RRIRGRPPRLPRPRPRPIGRPRP and report
1

Another: RRIRSRPPRLPRPRPRPGDSPRP
0

Entry to check: RRIRMRPPRLPRPRPRPMTWPRP
0

Item: RRIRARPPRLPRPRPRPTVSPRP
1

Now this one: RRIRERPPRLPRPRPRPMTAPRP
0

Repeat with RRIRVRPPRLPRPRPRPSNIPRP
0

Also RRIRWRPPRLPRPRPRPNKAPRP ?
0

###

test system: Escherichia coli TOP10; experiment: shrunken log2 fold change of peptide-encoding DNA abundance (4.5 h post-induction vs induction); higher = less antimicrobial activity (less host growth inhibition); settings: time post-induction: 4.5 h; library: site-saturation at positions 5, 18, 19, 20
Response key: yes means shrunken log2 fold change >= 0.07; no means shrunken log2 fold change < 0.07.

Dear colleague, could you confirm whether RRIRDRPPRLPRPRPRPQAHPRP has shrunken log2 fold change at or above 0.07?
yes

Ok, now RRIRDRPPRLPRPRPRPEGPPRP
yes

Can you handle RRIRHRPPRLPRPRPRPPKTPRP next?
yes

One more sequence: RRIRHRPPRLPRPRPRPTVAPRP
yes

Also check RRIRGRPPRLPRPRPRPAINPRP
yes

Another sequence: RRIRRRPPRLPRPRPRPCHWPRP
yes

Also RRIRSRPPRLPRPRPRPRNHPRP ?
no

Again, but for RRIRRRPPRLPRPRPRPNCMPRP
yes

Next sequence: RRIRMRPPRLPRPRPRPNISPRP
no

Same read-out for RRIRDRPPRLPRPRPRPHYRPRP ?
no

Please do the same for RRIRNRPPRLPRPRPRPIRDPRP as well.
yes

Now try RRIRPRPPRLPRPRPRPCTTPRP .
no

Entry to check: RRIRNRPPRLPRPRPRPLLKPRP
no

Repeat with RRIRNRPPRLPRPRPRPAFKPRP
no

Similarly, RRIRNRPPRLPRPRPRPTRAPRP ?
yes

Follow-up entry: RRIRTRPPRLPRPRPRPEGYPRP
no

Do the same for RRIRWRPPRLPRPRPRPFNMPRP please
no

// query: RRIRFRPPRLPRPRPRPISVPRP
no

Moving on to the next sequence: RRIRHRPPRLPRPRPRPLETPRP
no

Lookup RRIRFRPPRLPRPRPRPGYWPRP
yes

Try this sequence next: RRIRDRPPRLPRPRPRPAWFPRP
yes

And for RRIRFRPPRLPRPRPRPVCWPRP ?
yes

Then RRIRARPPRLPRPRPRPCRYPRP ?
no

###

Exercise: state measured shrunken log2 fold change for each of the sequences provided.
test system: Escherichia coli TOP10; assay: shrunken log2 fold change of peptide-encoding DNA abundance (4.5 h post-induction vs induction); higher = less antimicrobial activity (less host growth inhibition); details: time post-induction: 4.5 h; library: site-saturation at positions 5, 18, 19, 20;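 further: peptides expressed intracellularly from a pBAD plasmid library in pooled LB shake-flask culture, induced with 0.3% L-arabinose, DNA abundance read by NGS, three biological replicates, DESeq2 with apeglm shrinkage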
Just the number, please, no unit after it.

Value lookup for shrunken log2 fold change; key = RRIRERPPRLPRPRPRPFYHPRP
-1.01

Try this sequence too: RRIRPRPPRLPRPRPRPSCKPRP
-0.189

Try the sequence RRIRDRPPRLPRPRPRPIYPPRP
-1.42

Please give the result for RRIRNRPPRLPRPRPRPWCVPRP too.
-0.396

How about this sequence: RRIRDRPPRLPRPRPRPNKFPRP
-0.293

Check RRIRMRPPRLPRPRPRPYWSPRP too.
-0.186

Repeat with RRIRTRPPRLPRPRPRPNMVPRP
-0.0672

Query RRIRCRPPRLPRPRPRPYRTPRP next
-0.132

Similarly, RRIRTRPPRLPRPRPRPTIGPRP ?
-0.000966

Check RRIRVRPPRLPRPRPRPQRWPRP too.
0.496

Try this sequence too: RRIRCRPPRLPRPRPRPWIVPRP
-0.0435

// repeat for RRIRIRPPRLPRPRPRPKNHPRP and report
-0.622

Next record, please: RRIRDRPPRLPRPRPRPSVCPRP
0.294

# iterate: RRIRCRPPRLPRPRPRPRYMPRP
-0.402

Next: RRIRRRPPRLPRPRPRPMNQPRP
0.0252

Then what about the sequence RRIRNRPPRLPRPRPRPAIPPRP ?
-0.202

For RRIRQRPPRLPRPRPRPFEFPRP then?
-0.109

RRIRARPPRLPRPRPRPLIDPRP ?
0.647

Please give the result for RRIRKRPPRLPRPRPRPVPRPRP too.
0.72

Field entry: RRIRTRPPRLPRPRPRPHGGPRP
0.384

Also need RRIRARPPRLPRPRPRPMIAPRP , thanks.
0.263

Note, next up: RRIRNRPPRLPRPRPRPKQYPRP
-0.426

Entry RRIRVRPPRLPRPRPRPGIFPRP please
-0.0463

Another sequence: RRIRMRPPRLPRPRPRPRWAPRP
1.3

Record: RRIRWRPPRLPRPRPRPQSDPRP
-0.239

Same for RRIRDRPPRLPRPRPRPTKTPRP
-0.014

And RRIRDRPPRLPRPRPRPWHWPRP ?
0.00118

Please answer likewise for RRIRGRPPRLPRPRPRPNKQPRP
0.326

Would you kindly repeat that for RRIRMRPPRLPRPRPRPNNSPRP ?
-0.327

Let us now turn to RRIRMRPPRLPRPRPRPSNRPRP
-0.0397

Queued: RRIRYRPPRLPRPRPRPGSRPRP
-0.3

And the next one, RRIRHRPPRLPRPRPRPSNPPRP ?
-0.219

Now the sequence RRIRNRPPRLPRPRPRPHFPPRP
-0.186

Try this sequence too: RRIRKRPPRLPRPRPRPRITPRP
0.227

Try this sequence next: RRIRVRPPRLPRPRPRPDMPPRP
-0.264

Now give it for RRIRPRPPRLPRPRPRPPRNPRP too.
0.315

Now the same for RRIRERPPRLPRPRPRPMFHPRP
-0.897

Repeat with RRIRQRPPRLPRPRPRPNHTPRP
-0.0975

Next up: RRIRTRPPRLPRPRPRPDITPRP
-0.236

// repeat for RRIRWRPPRLPRPRPRPMHWPRP and report
0.194

Now try RRIRWRPPRLPRPRPRPKEGPRP .
0.538

Okay, and RRIRQRPPRLPRPRPRPTYDPRP ?
-0.338

What do you get for RRIRPRPPRLPRPRPRPQDGPRP ?
0.0623

Field entry: RRIRGRPPRLPRPRPRPMWCPRP
0.667

Note, next up: RRIRQRPPRLPRPRPRPTCVPRP
-0.442

And then RRIRARPPRLPRPRPRPPQCPRP , what is it?
0.585

Proceed to RRIRSRPPRLPRPRPRPTQFPRP
0.212
